# System: UACC-257 melanoma
# test-method-notes: NCI-60 one-dose screen, 48 h (100 = growth as untreated, 0 = no growth, -100 = all killed)
# conditions-used: 10 µM unless noted
About 83,000 compounds went through this panel and 20% of them were active in at least one assay; those are over-represented in the sample as a whole.
In this section we review reported growth values for a set of compounds.
endpoint-name: growth (%)

INSERT INTO results (mol_smiles, assayed_target, output_unit, endpoint_result) VALUES
  ('Cc1ccc(=O)n(-c2ccc(Br)cc2F)c1', 'UACC-257 melanoma', '%', 102),
  ('CCCCNc1cc(C(=O)O)cc(S(N)(=O)=O)c1Oc1ccccc1', 'UACC-257 melanoma', '%', 105),
  ('c1coc(CSc2ncnc3nc[nH]c23)c1', 'UACC-257 melanoma', '%', 97.3),
  ('O=c1c2ccccc2sc2c(NCCCNCCO)nc3ccccc3c12', 'UACC-257 melanoma', '%', 64),
  ('O=C(C[n+]1ccccc1Cl)c1ccc2c(c1)CCCC2', 'UACC-257 melanoma', '%', 101),
  ('CCN(CC)CCC(C(=O)O)(c1ccccc1)c1ccccc1', 'UACC-257 melanoma', '%', 113),
  ('O=C(NC(=S)Nc1ccc(Cl)cc1)c1ccccc1', 'UACC-257 melanoma', '%', 97),
  ('COc1ccc(Cn2cc3c(c2-c2cc(OC)c(OC)c(OC)c2)CCc2c(CO)noc2-3)cc1', 'UACC-257 melanoma', '%', 64.6),
  ('O=C(Nc1ccccc1Cl)c1c[nH]c(=O)c(-c2ccc(N3CCCOC4(CC4)C3)cc2)c1', 'UACC-257 melanoma', '%', 38),
  ('O=C(Nc1ccc(-n2ccc3c(NC(=O)c4ccccc4)nccc32)cc1)c1ccc(Cl)c(C(F)(F)F)c1', 'UACC-257 melanoma', '%', 58.8),
  ('O=C1C(Cl)=C(Nc2cccc3cc4ccccc4nc23)C(=O)c2ccccc21', 'UACC-257 melanoma', '%', 45.6);
